# System: Ipomoea hederacea (IPOHE)
# assayMethodText: Pre-emergence test, herbicidal damage
# Type: in vivo
# Design: key: 5=81-100%; 4=61-80%; 3=41-60%; 2=21-40%; 1=1-20%; 0=no damage to the plant; -=not tested
# recordedConditions: 1000 g/ha unless otherwise stated, evaluated after 13 days, five-point scale
quantityKind: percentage damage caused to the plant, IPOHE
Output spec: single numeric token, no unit.

Below are worked cases with known answers.
* Cc1cc(-c2ccc(Cl)c(Cl)c2)c(C(=O)O)c(=O)[nH]1 | 0
* Cc1cc(-c2ccc(Cl)c(Cl)c2)c(C(=O)O)c(=O)n1-c1ccc(F)cc1 | 0
* CCc1c(C)[nH]c(=O)c(C(=O)O)c1-c1ccc(Cl)c(Cl)c1 | 0
* Cc1c(Cl)c(-c2ccc(Cl)c(Cl)c2)c(C(=O)O)c(=O)n1C | 0
* Cc1[nH]c(=O)c(C(=O)O)c(-c2ccc(Cl)c(Cl)c2)c1C#N | 0
* Cc1cc(-c2ccc(Cl)c(Cl)c2)c(C(=O)O)c(=O)n1-c1cccc(C(F)(F)F)c1F | 0

# input Identify the reported percentage damage caused to the plant, IPOHE for the following entry. Cc1cc(-c2ccc(Cl)c(Cl)c2)c(C(=O)O)c(=O)n1-c1ncc(Cl)cc1Cl
# output 0

# input Please supply the value of reported percentage damage caused to the plant, IPOHE for the item Cc1cc(-c2ccc(Cl)c(Cl)c2)c(C(=O)O)c(=O)n1-c1ccc(Cl)cc1F
# output 0

# input Report measured percentage damage caused to the plant, IPOHE; entry is Cc1c(Cl)c(-c2ccc(Cl)c(Cl)c2)c(C(=O)O)c(=O)n1-c1cccc(C(F)(F)F)c1F
# output 0

# input For the compound Cc1[nH]c(=O)c(C(=O)O)c(-c2ccc(Cl)c(Cl)c2)c1Br , give its measured percentage damage caused to the plant, IPOHE value.
# output 0

Just for reference, patent US20250289787A1 is where these values come from.
